The measured values listed here are drawn from PubChem BioAssay (NCI).

system: A549 NSCLC; test: NCI tumour cell line growth inhibition, 48 h
Please provide measured TGI for the entries that follow.

In: GET /values?readout=TGI&item= Oc1ccc(-c2nnc3sc(-c4ccc(F)c(Oc5ccccc5)c4)nn23)cc1
Out: > 100 µM

In: GET /values?readout=TGI&item= N#Cc1c2ccc([N+](=O)[O-])cc2c(=O)n2c1sc1ccc(C(F)(F)F)cc12
Out: > 100 µM

In: GET /values?readout=TGI&item= CC(=O)O[C@H]1C(=O)[C@@]2(C)[C@H]([C@H](OC(=O)c3ccccc3)[C@]3(O)C[C@H](OC(=O)[C@H](OC(=O)OCCC(O)CO)[C@@H](NC(=O)c4ccccc4)c4ccccc4)C(C)=C1C3(C)C)[C@]1(OC(C)=O)CO[C@@H]1C[C@@H]2O (stereo partly drawn)
Out: > 100 µM
